Assay: Half life in DIO mouse at 10 mg/kg, po
Format: ADME, organism-based
Parameters: dose 10 mg/kg, route oral
Settings: in vivo
metric-name: half-life
Please answer using the number first and the unit second.

Sure, the documented half-life for `O=C(Nc1ccccc1)Nc1ccc(-c2ccc(C(=O)[C@@H]3CCC[C@H]3C(=O)O)cc2)cc1` is 6.5 h

====

Test: Half life in dog at 2.5 mg/kg, po
Assay type: ADME, organism-based, Canis lupus familiaris
Parameters: dose 2.5 mg/kg, route oral
Conditions: in vivo
metric-name: half-life

Sure, the documented half-life for `O=C(Nc1ccccc1)Nc1ccc(-c2ccc(C(=O)[C@@H]3CCC[C@H]3C(=O)O)cc2)cc1` is 3.6 h
